Each recorded value in this set is attributed to ChEMBL document CHEMBL4689842.

system: Fibroblast; assay: Multiplex assay against human fibroblast; assay type: toxicity, cell-based; settings: 24 h, 1 µM, compound concentration 1 uM, replicate 2
Recorded Population Fragmented Nuclei (%) by entry
Give your result in % as a bare value.

INSERT INTO results (molecule, readout_value) VALUES
  ('CN1CCN(C(=O)C(C)(C)c2ccc(C(=O)Nc3cn4cc(-c5cc(C(C)(C)C)cc(C(C)(C)C)c5)ccc4n3)cc2)CC1', 42),
  ('CNc1cc(Oc2cc(C(=O)Nc3cc(N4CCN(C)CC4)cc(C(F)(F)F)c3)ccc2C)ncn1', 16),
  ('O=C1NC(=O)C(c2cnc3ccccn23)=C1c1cn2c3c(cc(F)cc13)CN(C(=O)N1CCCCC1)CC2', 4);

Here's the next entry for you.
Q: Supply recorded Population Fragmented Nuclei (%) for CCCn1c(=O)c2[nH]c(-c3cnn(Cc4cccc(C(F)(F)F)c4)c3)nc2n(CC)c1=O here.
Result: 5

###

test system: HEK-293T; test: Multiplex assay against HEK293T; type: toxicity, cell-based; conditions: human, 24 h, 10 µM, compound concentration 10 uM, replicate 1
Recorded Population Fragmented Nuclei (%) by entry
Give your result in % as a bare value.

For orientation, consider the following solved cases.
INSERT INTO assay_data (molecule, measurement_kind, units_symbol, readout_value) VALUES
  ('S=C(NCCCc1c[nH]cn1)NCCCN(Cc1ccc(Cl)c(Cl)c1)c1ccc(Br)cn1', 'Population Fragmented Nuclei (%)', '%', 8),
  ('CCn1c(=O)c(-c2ccc(-c3cncs3)cc2Cl)cc2cnc(Nc3ccc(N4CCN(C)CC4)cc3)nc21', 'Population Fragmented Nuclei (%)', '%', 59),
  ('O=C(Cc1ccc(-c2ccc(OCCN3CCOCC3)cc2)cn1)NCc1ccccc1', 'Population Fragmented Nuclei (%)', '%', 21),
  ('CCOc1cc(C(=O)N2CCC(N3CCN(C)CC3)CC2)ccc1Nc1ncc2c(n1)N(C1CCCC1)c1ccccc1C(=O)N2C', 'Population Fragmented Nuclei (%)', '%', 15);

Q: Supply recorded Population Fragmented Nuclei (%) for Cc1ccc(C(=O)Nc2cccc(C(F)(F)F)c2)cc1Nc1nc(-c2cccnc2)nc2c1cnn2C here.
Result: 16

Q: Supply recorded Population Fragmented Nuclei (%) for COCC(=O)NC/C=C/c1ccc2ncnc(Nc3ccc(Oc4ccc(C)nc4)c(C)c3)c2c1 here.
Result: 23

Q: Supply recorded Population Fragmented Nuclei (%) for O=C(Nc1ccc(Cl)cc1)Nc1cccc(-c2cccc(N3CCCC3)n2)c1 here.
Result: 43

Q: Supply recorded Population Fragmented Nuclei (%) for Cl.Oc1ccc2c3c1O[C@H]1c4[nH]c5c(c4C[C@@]4(O)[C@@H](C2)N(CC2CC2)CC[C@]314)C[C@@]1(O)[C@H]2Cc3ccc(O)c4c3[C@@]1(CCN2CC1CC1)[C@H]5O4 here.
Result: 9

###

system: HEK-293T; assay: Incucyte cell viability with HEK293T; assay type: toxicity, cell-based; settings: human, 6 h, 10 µM, compound concentration 10 uM, replicate number 2, timepoint 6 hours; further: filed as whole numbers so only -1 and 0 and 1 occur
Recorded Growth Rate by entry
Output: the number by itself.

INSERT INTO assay_data (compound, measurement_kind, readout_value) VALUES
  ('COc1cc(-c2cn(C)c(=O)c3cnccc23)c(OC)cc1CN(C)C', 'Growth Rate', 1);

Q: Fill: Growth Rate (HEK-293T) for this compound COc1cc2c(CCNC(C)=O)c[nH]c2cc1Cl
Result: 0

###

test system: HEK-293T; experiment: Multiplex assay against HEK293T; type: toxicity, cell-based; details: human, 48 h, 1 µM, compound concentration 1 uM, replicate 2
Friendly reminder: Population Mitochondria Different-Phenotype (%) below 20% is 1, at or above is 0.

Examples with answers:
INSERT INTO assay_data (compound, assayed_system, discrete_label) VALUES
  ('O=C(Nc1ccc(-n2nc(-c3cccnc3)cc2C(F)(F)F)cn1)c1ccc(-c2ccccc2)c(F)c1', 'HEK-293T', 1),
  ('CCOc1cc(C(=O)N2CCC(N3CCN(C)CC3)CC2)ccc1Nc1ncc2c(n1)N(C1CCCC1)c1ccccc1C(=O)N2C', 'HEK-293T', 0),
  ('O=C1NC(=O)C(c2cnc3ccccn23)=C1c1cn2c3c(cc(F)cc13)CN(C(=O)N1CCCCC1)CC2', 'HEK-293T', 0),
  ('Cl.O=c1c2cccn2c2ccccc2n1CCCN1CCC(c2ccc(Cl)cc2)CC1', 'HEK-293T', 0),
  ('CCc1cccc(CC)c1NC(=O)c1nn(C)c2c1CCc1cnc(Nc3ccc(C(=O)NC4CCN(C)CC4)cc3OC(F)(F)F)nc1-2', 'HEK-293T', 0),
  ('CN1C2CCC1CC(OC(c1ccc(F)cc1)c1ccc(F)cc1)C2.Cl (stereo unspecified)', 'HEK-293T', 1),
  ('Cc1cn(-c2cc(NC(=O)c3ccc(C)c(Nc4nccc(-c5cccnc5)n4)c3)cc(C(F)(F)F)c2)cn1', 'HEK-293T', 1),
  ('Cl.Oc1ccc2c3c1O[C@H]1c4[nH]c5c(c4C[C@@]4(O)[C@@H](C2)N(CC2CC2)CC[C@]314)C[C@@]1(O)[C@H]2Cc3ccc(O)c4c3[C@@]1(CCN2CC1CC1)[C@H]5O4', 'HEK-293T', 1),
  ('O=C1N/C(=N/c2ccccc2F)S/C1=C\c1ccc(C(=O)O)cc1', 'HEK-293T', 1),
  ('CCCn1c(=O)c2[nH]c(-c3cnn(Cc4cccc(C(F)(F)F)c4)c3)nc2n(CC)c1=O', 'HEK-293T', 1);

Q: Does CCOc1cc2ncc(C#N)c(Nc3ccc(OCc4ccccn4)c(Cl)c3)c2cc1NC(=O)/C=C/CN(C)C have Population Mitochondria Different-Phenotype (%) strictly under 20%?
Result: 1

Q: Does CCn1c(=O)c(-c2ccc(-c3cncs3)cc2Cl)cc2cnc(Nc3ccc(N4CCN(C)CC4)cc3)nc21 have Population Mitochondria Different-Phenotype (%) strictly under 20%?
Result: 1

Q: Does CCN1CCN(Cc2ccc(Nc3ncc(F)c(-c4cc(F)c5nc(C)n(C(C)C)c5c4)n3)nc2)CC1.CS(=O)(=O)O have Population Mitochondria Different-Phenotype (%) strictly under 20%?
Result: 0

Q: Does CNc1cc(Oc2cc(C(=O)Nc3cc(N4CCN(C)CC4)cc(C(F)(F)F)c3)ccc2C)ncn1 have Population Mitochondria Different-Phenotype (%) strictly under 20%?
Result: 0

Q: Does C=C1/C(=C\C=C2/CCC[C@]3(C)[C@@H]([C@H](C)/C=C/[C@H](C)C(C)C)CC[C@@H]23)C[C@@H](O)C[C@@H]1O have Population Mitochondria Different-Phenotype (%) strictly under 20%?
Result: 1

###

test system: U2OS; assay: Multiplex assay against U2OS; format: toxicity, cell-based; details: human, 48 h, 10 µM, compound concentration 10 uM, replicate 1
Category key, based on recorded Population Pyknosed Nuclei (%): low interval (below 30%), middle interval (30% to below 50%), high interval (50% or more)

INSERT INTO results (compound, discrete_label) VALUES
  ('CN1CCC(=C2c3ccccc3CC(=O)c3sccc32)CC1.O=C(O)/C=C/C(=O)O [KETOTIFEN FUMARATE]', 'low interval');

Q: Kindly identify the class of Cl.O=C(c1ccc(Nc2nccc(-c3cc4ccccc4s3)n2)cc1)N1CCC(N2CCCC2)CC1 .
Result: high interval

Q: Kindly identify the class of Cc1ccc(C(=O)Nc2cccc(C(F)(F)F)c2)cc1Nc1nc(-c2cccnc2)nc2c1cnn2C .
Result: high interval

Q: Kindly identify the class of Cl.O=c1c2cccn2c2ccccc2n1CCCN1CCC(c2ccc(Cl)cc2)CC1 .
Result: high interval

Q: Kindly identify the class of CCCn1c(=O)c2[nH]c(-c3cnn(Cc4cccc(C(F)(F)F)c4)c3)nc2n(CC)c1=O .
Result: low interval

Q: Kindly identify the class of CCCS(=O)(=O)c1nc(NC2CC2)cc(-c2ccc3c(ccn3C3CC(C)(C)NC(C)(C)C3)c2)n1 .
Result: low interval

Q: Kindly identify the class of Cl.Oc1ccc2c3c1O[C@H]1c4[nH]c5c(c4C[C@@]4(O)[C@@H](C2)N(CC2CC2)CC[C@]314)C[C@@]1(O)[C@H]2Cc3ccc(O)c4c3[C@@]1(CCN2CC1CC1)[C@H]5O4 .
Result: low interval

Q: Kindly identify the class of O=C(Cc1ccc(-c2ccc(OCCN3CCOCC3)cc2)cn1)NCc1ccccc1 .
Result: middle interval

Q: Kindly identify the class of CN(C)C(=O)C(CCN1CCC(O)(c2ccc(Cl)cc2)CC1)(c1ccccc1)c1ccccc1.Cl [LOPERAMIDE HYDROCHLORIDE] .
Result: high interval

Q: Kindly identify the class of CNc1cc(Oc2cc(C(=O)Nc3cc(N4CCN(C)CC4)cc(C(F)(F)F)c3)ccc2C)ncn1 .
Result: middle interval

Q: Kindly identify the class of O=C1NC(=O)C(c2cnc3ccccn23)=C1c1cn2c3c(cc(F)cc13)CN(C(=O)N1CCCCC1)CC2 .
Result: low interval

Q: Kindly identify the class of COCC(=O)NC/C=C/c1ccc2ncnc(Nc3ccc(Oc4ccc(C)nc4)c(C)c3)c2c1 .
Result: middle interval

Q: Kindly identify the class of S=C(NCCCc1c[nH]cn1)NCCCN(Cc1ccc(Cl)c(Cl)c1)c1ccc(Br)cn1 .
Result: middle interval

Q: Kindly identify the class of CCn1c(=O)c(-c2ccc(-c3cncs3)cc2Cl)cc2cnc(Nc3ccc(N4CCN(C)CC4)cc3)nc21 .
Result: high interval
